# Test system: UACC-62 melanoma
# protocol.details: NCI-60 one-dose screen, 48 h (100 = growth as untreated, 0 = no growth, -100 = all killed)
# experimental.conditions: 10 µM
The panel holds about 83,000 compounds, 20% with a hit somewhere; the sample as a whole holds those more often.
Listed here: items and their measured growth.
readout.label: growth (%)

| compound | readout.label | numeric.readout |
| --- | --- | --- |
| CCC1(C)OC(=O)NC1=O (stereo unspecified) | growth | 103 |
| O=C(c1ccccc1)C(Nc1ccccc1)c1ccccc1 (stereo unspecified) | growth | 74.9 |
| COc1ccc(C2C=C(c3ccc(Cl)c(Cl)c3)N=C3SC(C)=CN32)cc1 (stereo unspecified) | growth | 92.1 |
| COc1ccc2c(=O)cc(C(Cl)(Cl)Cl)oc2c1 | growth | -73.2 |
| O=[N+]([O-])c1ccc(S(=O)(=O)OCCCCOS(=O)(=O)c2ccc([N+](=O)[O-])cc2)cc1 | growth | 99.8 |
| COc1ccc(Cn2cc3c(c2-c2cc(OC)c(OC)c(OC)c2)CCc2cnoc2-3)cc1N | growth | 50.5 |
| O=C(Nc1ccc(CN2CCOCC2)cc1)c1ccc(-c2cc(Cl)ccc2Cl)o1 | growth | -56.1 |
| CNC(=O)c1cc(Oc2ccc(NC(=O)Nc3ccc(Cl)c(OC(C)C)c3)c(F)c2)ccn1 | growth | 34.2 |
| N#CC1C=Cc2c(ccc3ccccc23)N1C(=O)c1ccccc1 (stereo unspecified) | growth | 37.7 |
| Nc1ccc(Sc2ccc3c4c2cccc4c(=O)n2c4ccccc4nc32)cc1 | growth | 31.9 |
| COc1ccc(-c2nnc(SCC(=O)c3ccccc3)o2)cc1 | growth | 88.3 |

====

Listed here: items and their measured growth.
# Tested on: COLO 205 colon
# protocol.details: NCI-60 one-dose screen, 48 h (100 = growth as untreated, 0 = no growth, -100 = all killed)
# experimental.conditions: 10 µM
The panel holds about 83,000 compounds, 20% with a hit somewhere; the sample as a whole holds those more often.

| compound | growth / % |
| --- | --- |
| Cc1ccc2c3c(cccc13)-c1ccccc1C2=O | 93.9 |
| CCN1CCN(c2nc(NNC(=O)c3cccc(OC)c3)nc(N3CCN(C(c4ccccc4)c4ccccc4)CC3)n2)CC1 | -31.6 |
| CCOC(=O)[C@@H](Cc1ccccc1)NC(=O)c1[nH]c2ccc(Cl)cc2c(=O)c1C | 111 |
| COc1ccc2nc(C)cc(Nc3ccc(Cl)cc3)c2c1 | 107 |
| COc1cccc2c1O/C(=C\c1ncc([N+](=O)[O-])n1C)C2=O | -57.8 |
| COc1cc(-c2n/c(=C\c3c(O)[nH]c4ccccc34)cc3c2=Nc2ccccc2-3)cc(OC)c1OC | -49.2 |
| CC(C)OCc1cc(CN2CCN(c3cccc(Cl)c3)CC2)c(O)c2ncccc12 | -43.1 |
| CCCCc1ccc(NC(=O)N(CCCl)N=O)cc1 | 101 |
| Fc1ccc(Nc2ccnc(N3CCN(c4ccnc5cc(Cl)ccc45)CC3)n2)cc1 | 34.7 |
| O=C(NNc1nc(N2CCCC2)nc(N2CCCC2)n1)c1ccccc1 | 109 |
| CC(=O)Oc1c(C)c(C)c2c(c1C)CCC(C)(CC(=O)OCCCCCCCCCCC[P+](c1ccccc1)(c1ccccc1)c1ccccc1)O2 (configuration not stated) | -73.9 |
| NC(N)=NS(=O)(=O)c1ccc(Nc2ccc3nnc(-c4ccncc4)n3n2)cc1 | 111 |
| O=S(=O)(O)C1(O)CCCCC1 | 96.1 |
| Cn1cnc([N+](=O)[O-])c1Sc1nnc(-c2ccccc2)c(-c2ccccc2)n1 | 90.2 |
| N#Cc1ccc(-n2cnc(NC(=O)[C@H]3CCN(C#N)C3)c2)cc1 | -55.3 |
| CC(C)C[C@H](NC(=O)CCn1ccc2ccccc2c1=O)B(O)O | 48.7 |
| Cc1noc(C)c1-c1ccc2nc(NC(=O)[C@H]3CCN(C#N)C3)cn2c1 | 82.6 |
| COc1ccc(/C(CS(=O)(=O)c2ccccc2)=N\O)cc1 | 114 |
| COc1ccc(-c2cc(/C=C3\C(=O)Nc4cc(Cl)ccc43)[nH]n2)cc1OC | 79.4 |
| S=c1c2ncccc2c(-c2ccccn2)nn1Cc1ccccn1 | 92.8 |
| CCOC(=O)C(=O)Cc1cccnn1 | 102 |
| COc1cccc(C(=O)NNc2nc(N3CCOCC3)nc(N3CCN(C(c4ccccc4)c4ccccc4)CC3)n2)c1 | 75.4 |

====

# Test system: M14 melanoma
# protocol.details: NCI-60 one-dose screen, 48 h (100 = growth as untreated, 0 = no growth, -100 = all killed)
# experimental.conditions: 10 µM
# Method: Growth inhibition of the M14 human tumor cell line is measured as a screen for anti-cancer activity. Cells are grown in 96 well plates and exposed to the test compound for 48 hours. Compounds are tested at a single concentration, which is 10^-5 M for most compounds. The reported endpoint is percent growth (GI% or GIPRCNT), where numbers from 0 - 100% represent growth inhibition, and numbers from -100% - 0 represent cell death. For example, a value of 40 represents 60% growth inhibition. […]
About 83,000 compounds went through this panel and 20% of them were active in at least one assay; those are over-represented in the sample as a whole.
Listed here: items and their measured growth.
readout.label: growth (%)

| compound | readout.label | numeric.readout |
| --- | --- | --- |
| CC(C)C[C@H](NC(=O)Cn1ccc(Nc2ccccc2)cc1=O)B(O)O | growth | 31.8 |
| COc1ccc(/C=C2\CCC3C(CCCC34OCCO4)C2=O)cc1 (stereo not given) | growth | 95.6 |
| CCCCCCN=C(N)CCCCCCCCCCC(N)=NCCCCCC | growth | 23.2 |
| O=[N+]([O-])C1CC2C=CC1C2 (stereo not given) | growth | 98.7 |
| CCN(CC)CC(O)Cc1ccc(OC)cc1 (stereo not given) | growth | 116 |
| CC1(C)CC(OCCCC[P+](c2ccccc2)(c2ccccc2)c2ccccc2)CC(C)(C)N1O | growth | 8.8 |
| COc1ccc(-c2nc(-c3nc4ccc(OC)cc4[nH]3)c3ccccn23)cc1 | growth | 77.5 |
| O=[N+]([O-])c1ccc(-c2nc(Cl)c3c(n2)CCCC3)o1 | growth | 71.3 |
| O=C/C=C/c1ccc([N+](=O)[O-])cc1Cl | growth | 90.8 |
| CC(=O)[C@H]1CC[C@H]2[C@@H]3CC[C@@H]4CC=C(C=O)C[C@]4(C)[C@H]3CC[C@]12C | growth | 89.2 |
| Cn1cnc([N+](=O)[O-])c1/C=C1\Oc2ccc(Cl)cc2C1=O | growth | 87.5 |
| CCCCCCCCCCCCCCCCn1cc[n+](C)c1 | growth | -77.4 |
| N#Cc1c(-c2ccccc2)nc(SCC(=O)N2CCOCC2)[nH]c1=O | growth | 100 |
| CC(C)c1ncc(CO)n1Cc1c(Cl)cccc1Cl | growth | 109 |
| CCOC(=O)[C@@H](Cc1ccccc1)NC(=O)c1[nH]c2ccc(Cl)cc2c(=O)c1C | growth | 97.1 |
| CC(=O)c1c(O)cc2c3c1OC(C)(C)C1CCC(C)(CC31)O2 (stereo not given) | growth | 92.2 |
| CCN1CCN(c2nc(NNC(=O)c3cccc(OC)c3)nc(N3CCN(C(c4ccccc4)c4ccccc4)CC3)n2)CC1 | growth | -43.2 |
| CC(=O)CS(C)(=O)=O | growth | 108 |
| Clc1ccc(-c2nc(-c3cccs3)cn3ccnc23)cc1 | growth | 61.5 |
| Nc1cc2c(cc1Cl)-c1ccc(Cl)cc1C2=O | growth | 104 |
| CC(=O)N(O)c1ccc(/C=C/c2ccccc2)cc1 | growth | 46.2 |
| OC(CNC1CCCC1)Cn1c2ccccc2c2ccccc21 (stereo not given) | growth | -68.1 |
| Fc1ccc2[nH]c3c(NCCCN4CCOCC4)ncnc3c2c1 | growth | 85.3 |
| COc1cc(-c2nc3ccc(C)cc3[nH]2)ccc1OCC(=O)N=Nc1c(O)[nH]c2ccccc12 | growth | -72.8 |
| CCc1ccc(Nc2cc(C)nc3nc(C)nn23)cc1 | growth | -93.6 |
| C=CCNC(=S)NN | growth | 97.9 |
| COc1cc(C(c2c[nH]c3ccccc23)N2CCCC2)ccc1OCc1ccccc1 (stereo not given) | growth | 88.2 |
| CCOC(=O)[C@@H]1[C@H](c2ccccc2)[C@H]([N+](=O)[O-])[C@H](c2cn(-c3ccccc3)nc2C)N1Cc1ccccc1 | growth | 76.5 |
| CCCc1ccnc(NS(=O)(=O)c2ccc(N)cc2)n1 | growth | 95.8 |
| CCOC(=O)c1c(Cl)c2c(n1Cc1cccc(OC)c1)-c1oncc1CC2 | growth | 17.9 |
| COc1ccc(-c2[nH]ncc2-c2cc(OC)c(OC)c(OC)c2)cc1 | growth | 4.51 |
| O=C(O)c1ccc(CNc2ccc(C(=O)CCl)cc2)cc1 | growth | 105 |
| O=C(Nc1cccc(C(F)(F)F)c1)C(Cl)Cl | growth | 98.8 |
| FC(F)(F)c1ccc(-c2cnc(Cl)nc2NC2CCCCCC2)cc1 | growth | 21.8 |
| CCN1CCN(c2ccc(Nc3ncnc4c3nnn4CCc3cc(OC)cc(OC)c3)cc2)CC1 | growth | 98.6 |
| COC(=O)c1c(C)nc(Nc2nc3ccccc3s2)nc1-c1ccc(Cl)cc1Cl | growth | 101 |
| CCc1ccc(-c2nnc(COc3ccc(-c4nc5ccc(C)cc5[nH]4)cc3OC)o2)cc1 | growth | 49.5 |
| CC(C)CCN(CCCNc1c2c(nc3cc(Cl)ccc13)CCCC2)CCC(C)C | growth | 4.03 |
| O=[N+]([O-])c1ccc(S(=O)(=O)OCCCCOS(=O)(=O)c2ccc([N+](=O)[O-])cc2)cc1 | growth | 104 |
| CC(C)/C=N/NC(N)=S | growth | 84.4 |
| COc1cc(-c2cc(-c3ccc(C)cc3)nc3nc(N)[nH]c(=O)c23)ccc1Oc1ccnc2cc(Cl)ccc12 | growth | 101 |
| CCCCn1c(=O)[nH]c2c(c1=O)C(c1ccc(Cl)cc1)c1c([nH]c(=O)n(CCCC)c1=O)N2 | growth | 96.6 |
| Cc1cccc2c1O/C(=C\c1ncc([N+](=O)[O-])n1C)C2=O | growth | -49.2 |
| COc1cccc2c1O/C(=C\c1ccc([N+](=O)[O-])s1)C2=O | growth | 48.1 |
| CCC(O)c1ccc(Br)cc1NC(=O)c1cccc(Cl)c1 (stereo not given) | growth | 0.116 |
